The measured values listed here are drawn from the Human Domainome abundance scans (Beltran et al. 2025).

B1: Protein piccolo, residues 1058 to 1114; numbered along this chain, Q9Y6V0 (parent)
chain: TCPLCKTELNIGSKDPPNFNTCTECKNQVCNLCGFNPTPHLTEIQEWLCLNCQTQRA

# Variants of: B1
# protocol-description: abundance fitness (aPCA) (normalised: wild type 0, dead -1); higher = more abundant; growth selection in yeast, the domain comes from the species named
# protocol-conditions: Homo sapiens
Is abundance fitness at least -0.1? Then TRUE. If not, FALSE.

Reference set, count: 5
1) K6C
FALSE
2) K14F
FALSE
3) K6V
FALSE
4) F35C
TRUE
5) N27V
TRUE

[Q] Is it the case that Q28L has abundance fitness reaching or exceeding -0.1?
[A] TRUE

[Q] Assess whether reported abundance fitness for C30S sits at -0.1 or higher.
[A] FALSE

[Q] Tell me whether abundance fitness is at least -0.1 here: L41Y
[A] TRUE
